In this section, each of the molecules is paired with its reported normalized growth.
# assay.explanation: chemical genetic growth profiling, strain panel (AID 1159580);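 note: tested at 20 µM; growth read once vehicle control cultures reached saturation at 30 °C; 1 = growth at the plate median or of vehicle wells; lower values mean less growth of the strain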
# condition: S. cerevisiae deletion strains, growth OD, locus YMR058W, strain fet3, stronger effect = lower value
About 2,000 (36%) of roughly 5,500 compounds were called active. Roughly 18% stayed inconclusive and do not appear here. This is one part of the list.

# molecule, normalized growth
measured = [
    ("O=C(O)CCc1nc(-c2ccccc2)c(-c2ccccc2)o1", 0.956),
    ("Cc1c(C(N)=O)cc([N+](=O)[O-])cc1[N+](=O)[O-]", 1.01),
    ("CC1CCCC(C)N1NC(=O)c1ccc(Cl)c(S(N)(=O)=O)c1 (centres undefined)", 1.03),
    ("CC1(C)O[C@@H]2CC3C4C[C@H](F)C5=CC(=O)CC[C@]5(C)C4[C@@H](O)C[C@]3(C)[C@]2(C(=O)CO)O1 (some centres undefined)", 1.02),
    ("NC[C@@H]1O[C@H](O[C@@H]2[C@@H](CO)OC(O[C@@H]3[C@@H](O)[C@H](N)C[C@H](N)[C@H]3O[C@H]3O[C@H](CO)[C@@H](O)[C@H](O)[C@H]3N)[C@@H]2O)[C@H](N)[C@@H](O)[C@@H]1O (some centres undefined)", 0.988),
    ("COc1ccc(-c2cc(=O)c3c(OC)c(OC)c(OC)c(OC)c3o2)cc1OC", 0.995),
    ("NC(=O)c1ccc([N+](=O)[O-])cc1Cl", 0.977),
    ("COc1ccc(-c2cc(=O)c3c(O)cc(O)cc3o2)cc1", 0.983),
    ("COc1ccc(-c2cc(=O)c3c(O)c(OC)c(OC)c(OC)c3o2)cc1OC", 0.815),
]

---

# assay.explanation: chemical genetic growth profiling, strain panel (AID 1159580);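 note: tested at 20 µM; growth read once vehicle control cultures reached saturation at 30 °C; 1 = growth at the plate median or of vehicle wells; lower values mean less growth of the strain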
# condition: S. cerevisiae deletion strains, growth OD, locus YPR167C, strain met16, stronger effect = lower value
The whole screen tested about 5,500 compounds, of which about 2,000 (36%) were called active. Another 18% or so got no clear call; they are omitted. This is one part of the list.
In this section, each of the compounds is paired with its reported normalized growth.
measured.quantity: normalized growth

# compound, value.reported
records = [
    ("O=C(O)c1cc(O)ccc1O", "1.01 (inactive)"),
    ("NCC(O)CC(=O)O (configuration not stated)", "0.995 (inactive)"),
    ("O=c1c(O)cc([C@H]2Oc3cc(O)cc(O)c3C[C@H]2O)cc2c([C@H]3Oc4cc(O)cc(O)c4C[C@H]3O)cc(O)c(O)c12", "1.02 (inactive)"),
    ("N#Cc1c(Cl)cccc1Cl", "1.02 (inactive)"),
    ("C[N+]1(C)C[C@H](O)[C@H](C(=O)[O-])C1", "0.995 (inactive)"),
    ("C/C=C/CC(C)C(O)C1C(=O)NC(CC)C(=O)N(C)CC(=O)N(C)C(CC(C)C)C(=O)NC(C(C)C)C(=O)N(C)C(CC(C)C)C(=O)NC(C)C(=O)NC(C)C(=O)N(C)C(CC(C)C)C(=O)N(C)C(CC(C)C)C(=O)N(C)C(C(C)C)C(=O)N1C (configuration not stated)", "1.02 (inactive)"),
    ("CCn1nc(C(=O)O)c(=O)c2cc3c(cc21)OCO3", "1.01 (inactive)"),
    ("O=C(O)CN(CCN(CC(=O)O)CC(=O)O)CC(=O)O", "0.902 (active)"),
    ("CC(C)(C)NCC(O)COc1cccc2c1C[C@H](O)[C@H](O)C2 (some centres not stated)", "0.987 (inactive)"),
    ("Nc1ccc(S(=O)(=O)Nc2ncccn2)cc1", "0.989 (inactive)"),
    ("CC(=O)N1CCCC1C(=O)O (configuration not stated)", "1.01 (inactive)"),
    ("O=c1c(O)cccc2c(C3Oc4cc(O)cc(O)c4CC3O)cc(O)c(O)c12 (configuration not stated)", "0.707 (active)"),
]
